Test: Cmax in C57BL/6 mouse at 0.5 umol/kg, po
Type: ADME, organism-based
Set-up: dose 0.5 umol/kg, route oral
Conditions: in vivo
Mark met for reported Cmax of 100 µM or greater; mark not met for anything smaller.

| COMPOUND | ASSIGNED_CLASS |
| --- | --- |
| CCCCCCCCCCCC(=O)Nc1ncnc2c1ncn2[C@@H]1O[C@H](CO)C[C@H]1O | met |
| CCCCCCCC(=O)Nc1ncnc2c1ncn2[C@@H]1O[C@H](CO)C[C@H]1O | met |
| Nc1ncnc2c1ncn2[C@@H]1O[C@H](CO)C[C@H]1O [CORDYCEPIN] | not met |
| CCCCCCCCCCCCCCCCCC(=O)Nc1ncnc2c1ncn2[C@@H]1O[C@H](CO)C[C@H]1O | not met |
| CCC(=O)Nc1ncnc2c1ncn2[C@@H]1O[C@H](CO)C[C@H]1O | met |

====

Test: Tmax in C57BL/6 mouse at 0.5 umol/kg, po
Format: ADME, organism-based
Details: in vivo
Mark TRUE for reported Tmax of 3 h or greater; mark FALSE for anything smaller.

| COMPOUND | ASSIGNED_CLASS |
| --- | --- |
| Nc1ncnc2c1ncn2[C@@H]1O[C@H](CO)C[C@H]1O [CORDYCEPIN] | FALSE |
| CCCCCCCC(=O)Nc1ncnc2c1ncn2[C@@H]1O[C@H](CO)C[C@H]1O | TRUE |
| CCCCCCCCCCCC(=O)Nc1ncnc2c1ncn2[C@@H]1O[C@H](CO)C[C@H]1O | TRUE |
| CCCCCCCCCCCCCCCCCC(=O)Nc1ncnc2c1ncn2[C@@H]1O[C@H](CO)C[C@H]1O | TRUE |

====

Experiment: AUC in C57BL/6 mouse at 0.5 umol/kg, po
Format: ADME, organism-based
Settings: plasma
Attribute: AUC

| COMPOUND | AUC / µM·h |
| --- | --- |
| CCCCCCCC(=O)Nc1ncnc2c1ncn2[C@@H]1O[C@H](CO)C[C@H]1O | 1310 |
| Nc1ncnc2c1ncn2[C@@H]1O[C@H](CO)C[C@H]1O [CORDYCEPIN] | 19.2 |
| CCC(=O)Nc1ncnc2c1ncn2[C@@H]1O[C@H](CO)C[C@H]1O | 356 |
| CCCCCCCCCCCC(=O)Nc1ncnc2c1ncn2[C@@H]1O[C@H](CO)C[C@H]1O | 672 |
| CCCCCCCCCCCCCCCCCC(=O)Nc1ncnc2c1ncn2[C@@H]1O[C@H](CO)C[C@H]1O | 32.5 |

====

System: Mus musculus
Experiment: AUC in C57BL/6 mouse at 0.5 umol/kg, po assessed as transformed cordycepin levels
Format: ADME, organism-based, Plasma
Conditions: in vivo, in the assay text read “500 umol/kg” for “0.5 umol/kg”

| COMPOUND | AUC [µM·h] |
| --- | --- |
| CCCCCCCC(=O)Nc1ncnc2c1ncn2[C@@H]1O[C@H](CO)C[C@H]1O | 83.7 |
| CCC(=O)Nc1ncnc2c1ncn2[C@@H]1O[C@H](CO)C[C@H]1O | 59.9 |
| CCCCCCCCCCCCCCCCCC(=O)Nc1ncnc2c1ncn2[C@@H]1O[C@H](CO)C[C@H]1O | 3.7 |
| CCCCCCCCCCCC(=O)Nc1ncnc2c1ncn2[C@@H]1O[C@H](CO)C[C@H]1O | 69.1 |
| Nc1ncnc2c1ncn2[C@@H]1O[C@H](CO)C[C@H]1O [CORDYCEPIN] | 19.2 |

====

Attribute: half-life
Test: Half life in C57BL/6 mouse at 0.5 umol/kg, po
Format: ADME, organism-based
Settings: in vivo
MEASURED_PARAMETER: half-life (min)

| MOLECULE | MEASURED_PARAMETER | READING_UNIT | READOUT_VALUE |
| --- | --- | --- | --- |
| CCCCCCCC(=O)Nc1ncnc2c1ncn2[C@@H]1O[C@H](CO)C[C@H]1O | half-life | min | 408 |
| Nc1ncnc2c1ncn2[C@@H]1O[C@H](CO)C[C@H]1O [CORDYCEPIN] | half-life | min | 126 |
| CCC(=O)Nc1ncnc2c1ncn2[C@@H]1O[C@H](CO)C[C@H]1O | half-life | min | 264 |
| CCCCCCCCCCCCCCCCCC(=O)Nc1ncnc2c1ncn2[C@@H]1O[C@H](CO)C[C@H]1O | half-life | min | 516 |
| CCCCCCCCCCCC(=O)Nc1ncnc2c1ncn2[C@@H]1O[C@H](CO)C[C@H]1O | half-life | min | 498 |

====

Test system: Mus musculus
Experiment: Tmax in C57BL/6 mouse at 0.5 umol/kg, po assessed as transformed cordycepin levels
Type: ADME, organism-based
Conditions: in vivo
Attribute: Tmax
MEASURED_PARAMETER: Tmax

| MOLECULE | MEASURED_PARAMETER | READOUT_VALUE |
| --- | --- | --- |
| CCCCCCCCCCCCCCCCCC(=O)Nc1ncnc2c1ncn2[C@@H]1O[C@H](CO)C[C@H]1O | Tmax | 10 h |
| CCCCCCCCCCCC(=O)Nc1ncnc2c1ncn2[C@@H]1O[C@H](CO)C[C@H]1O | Tmax | 8 h |
| CCCCCCCC(=O)Nc1ncnc2c1ncn2[C@@H]1O[C@H](CO)C[C@H]1O | Tmax | 7 h |
| CCC(=O)Nc1ncnc2c1ncn2[C@@H]1O[C@H](CO)C[C@H]1O | Tmax | 5 h |
| Nc1ncnc2c1ncn2[C@@H]1O[C@H](CO)C[C@H]1O [CORDYCEPIN] | Tmax | 1.5 h |

====

Attribute: Cmax
Test system: Mus musculus
Test: Cmax in C57BL/6 mouse at 500 umol/kg, po assessed as transformed cordycepin levels
Settings: in vivo

| MOLECULE | READING_UNIT | Cmax |
| --- | --- | --- |
| Nc1ncnc2c1ncn2[C@@H]1O[C@H](CO)C[C@H]1O [CORDYCEPIN] | µM | 10.1 |
| CCCCCCCCCCCCCCCCCC(=O)Nc1ncnc2c1ncn2[C@@H]1O[C@H](CO)C[C@H]1O | µM | 2.2 |
| CCCCCCCCCCCC(=O)Nc1ncnc2c1ncn2[C@@H]1O[C@H](CO)C[C@H]1O | µM | 15 |
| CCCCCCCC(=O)Nc1ncnc2c1ncn2[C@@H]1O[C@H](CO)C[C@H]1O | µM | 20.6 |
| CCC(=O)Nc1ncnc2c1ncn2[C@@H]1O[C@H](CO)C[C@H]1O | µM | 14.1 |

====

System: Mus musculus
Test: Half life in C57BL/6 mouse at 0.5 umol/kg, po assessed as transformed cordycepin levels
Format: ADME, organism-based
Conditions: in vivo, in the assay text read “500 umol/kg” for “0.5 umol/kg”

| COMPOUND | t1/2 |
| --- | --- |
| CCCCCCCCCCCCCCCCCC(=O)Nc1ncnc2c1ncn2[C@@H]1O[C@H](CO)C[C@H]1O | 10.8 h |
| CCC(=O)Nc1ncnc2c1ncn2[C@@H]1O[C@H](CO)C[C@H]1O | 7.5 h |
| CCCCCCCC(=O)Nc1ncnc2c1ncn2[C@@H]1O[C@H](CO)C[C@H]1O | 9.4 h |
| Nc1ncnc2c1ncn2[C@@H]1O[C@H](CO)C[C@H]1O [CORDYCEPIN] | 2.1 h |

Cited source: ChEMBL document CHEMBL1153879
